target: hrPARP-1 (human recombinant, Trevigen) (Homo sapiens); experiment: Functional assessment of human PARP-1 enzymatic activity; conditions: 1 U hrPARP-1, 15 μg/mL activated DNA, 5 μM NAD+, 20 min room temperature
Sequence (P09874 whole entry): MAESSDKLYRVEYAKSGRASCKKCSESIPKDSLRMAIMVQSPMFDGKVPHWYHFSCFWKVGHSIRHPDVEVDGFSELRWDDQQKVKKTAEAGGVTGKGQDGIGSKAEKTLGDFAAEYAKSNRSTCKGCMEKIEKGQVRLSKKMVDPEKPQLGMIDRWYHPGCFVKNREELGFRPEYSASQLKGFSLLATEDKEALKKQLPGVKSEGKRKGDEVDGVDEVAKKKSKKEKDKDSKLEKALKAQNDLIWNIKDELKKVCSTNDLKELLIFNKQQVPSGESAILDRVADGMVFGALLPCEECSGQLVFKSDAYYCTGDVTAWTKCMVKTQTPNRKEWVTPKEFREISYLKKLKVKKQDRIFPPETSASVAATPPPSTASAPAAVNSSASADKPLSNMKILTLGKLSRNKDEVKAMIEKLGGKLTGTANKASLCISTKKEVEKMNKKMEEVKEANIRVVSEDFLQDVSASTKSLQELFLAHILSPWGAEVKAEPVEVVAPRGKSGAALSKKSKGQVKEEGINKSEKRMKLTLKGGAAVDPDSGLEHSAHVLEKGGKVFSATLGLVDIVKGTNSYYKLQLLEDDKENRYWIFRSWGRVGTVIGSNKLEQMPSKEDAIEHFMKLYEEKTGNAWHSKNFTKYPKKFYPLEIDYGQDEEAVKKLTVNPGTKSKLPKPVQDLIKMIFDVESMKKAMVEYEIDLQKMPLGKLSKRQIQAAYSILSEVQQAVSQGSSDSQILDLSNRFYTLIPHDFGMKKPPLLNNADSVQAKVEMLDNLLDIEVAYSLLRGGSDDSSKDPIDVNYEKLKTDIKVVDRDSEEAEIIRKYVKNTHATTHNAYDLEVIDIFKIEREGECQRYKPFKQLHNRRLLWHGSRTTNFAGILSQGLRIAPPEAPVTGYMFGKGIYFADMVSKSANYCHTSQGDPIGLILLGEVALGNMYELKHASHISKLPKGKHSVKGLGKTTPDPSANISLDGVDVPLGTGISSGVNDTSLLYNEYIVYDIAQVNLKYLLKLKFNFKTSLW
pIC50: −log10 of the molar value. Counter-ions that a name gives are not always drawn.
QUANTITY MEASURED: pIC50

Some solved entries appear below for comparison.
CN(C)Cc1cc2c([nH]c(=O)c3ccccc32)o1 [Example 9, hydrochloride] :: 6.79
CN(C)Cc1cc2c([nH]c(=O)c3cc(F)ccc32)s1 [Example 4, hydrochloride] :: 7.00
O=c1[nH]c2sc(CN3CCCC3)cc2c2c(O)cccc12 :: 7.09

[P] CN(C)Cc1cc2c([nH]c(=O)c3ccccc32)s1 [Example 3, hydrochloride]
[Q] CC(C)NCc1cc2c([nH]c(=O)c3cccc(O)c32)s1
[R] O=c1[nH]c2sc(CN3CCSC3)cc2c2c(O)cccc12
[S] O=c1[nH]c2sc(CN3CCC(Br)CC3)cc2c2c(O)cccc12
# input Ascending by pIC50, please: list the molecules accordingly. Thanks in advance for listing the labels in the requested order.
# output P, Q, S, R
(P: 6.59, Q: 7.07, S: 7.46, R: 8.48)

[I] Br.CN(C)Cc1cc2c([nH]c(=O)c3cccc(O)c32)s1 [Example 2, hydrobromide]
[II] CN(C)Cc1cc2c([nH]c(=O)c3cccc(F)c32)s1 [Example 5, hydrochloride]
[III] CN(Cc1ccccc1)Cc1cc2c([nH]c(=O)c3cccc(O)c32)s1
[IV] O=c1[nH]c2sc(CN(Cc3ccccc3)Cc3ccccc3)cc2c2c(O)cccc12
[V] O=c1[nH]c2sc(CN3CCOCC3)cc2c2c(O)cccc12
# input Rank order required: pIC50, descending. Thanks in advance for listing the labels in the requested order.
# output V, I, II, III, IV

---

assay: Microsomal stability, C57 mouse liver microsomes; assay type: in vitro ADME; conditions: 0.5 mg/mL protein, Phase I plus Phase II cofactors, read-out: Microsomal Stability C57 Mouse Phase I & II t1/2
QUANTITY MEASURED: half-life at 1 μM (min)

Br.CN(C)Cc1cc2c([nH]c(=O)c3cccc(O)c32)s1 :: 19

[A] O=c1[nH]c2sc(CN3CCC(Br)CC3)cc2c2c(O)cccc12
[B] CC(C)NCc1cc2c([nH]c(=O)c3cccc(O)c32)s1
[C] O=c1[nH]c2sc(CN3CCSC3)cc2c2c(O)cccc12
# input Rank order required: half-life at 1 μM, descending. Thanks in advance for listing the labels in the requested order.
# output B, C, A

---

assay: Microsomal stability, rat liver microsomes; type: in vitro ADME; conditions: 0.5 mg/mL protein, NADPH, Phase I, read-out: Microsomal Stability Rat Phase I t1/2
QUANTITY MEASURED: half-life at 1 μM (min)

Some solved entries appear below for comparison.
Br.CN(C)Cc1cc2c([nH]c(=O)c3cccc(O)c32)s1 :: 6
O=c1[nH]c2sc(CN3CCSC3)cc2c2c(O)cccc12 :: 5

[A] O=c1[nH]c2sc(CN3CCC(Br)CC3)cc2c2c(O)cccc12
[B] O=c1[nH]c2sc(CN3CCCCC3)cc2c2c(O)cccc12
[C] O=c1[nH]c2sc(CN3CCOCC3)cc2c2c(O)cccc12
# input Rank order required: half-life at 1 μM, descending. Thanks in advance for listing the labels in the requested order.
# output C, B, A
(C: 30 min, B: 10 min, A: 3 min)
